- STUDY_TARGET: cyclooxygenase-1 (Mus musculus, UniProt P22437)
- Construct: endogenous in cells; host or cells: primary mouse peritoneal macrophages (unstimulated)
- Sequence (P22437 27-602): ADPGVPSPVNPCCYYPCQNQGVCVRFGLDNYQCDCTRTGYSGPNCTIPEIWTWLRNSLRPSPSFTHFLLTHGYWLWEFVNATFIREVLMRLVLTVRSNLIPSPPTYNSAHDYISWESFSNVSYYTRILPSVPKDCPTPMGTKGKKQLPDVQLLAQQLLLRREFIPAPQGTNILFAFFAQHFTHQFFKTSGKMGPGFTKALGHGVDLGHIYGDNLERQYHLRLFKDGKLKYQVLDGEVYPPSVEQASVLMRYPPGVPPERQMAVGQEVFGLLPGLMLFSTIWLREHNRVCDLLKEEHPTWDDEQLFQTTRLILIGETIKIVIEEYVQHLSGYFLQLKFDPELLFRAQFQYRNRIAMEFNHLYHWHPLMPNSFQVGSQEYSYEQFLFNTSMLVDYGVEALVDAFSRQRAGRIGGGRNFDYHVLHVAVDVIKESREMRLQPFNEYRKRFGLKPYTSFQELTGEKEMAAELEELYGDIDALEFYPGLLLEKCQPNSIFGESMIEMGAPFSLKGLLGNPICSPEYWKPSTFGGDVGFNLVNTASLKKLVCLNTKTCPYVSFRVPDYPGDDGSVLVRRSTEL
- EXPERIMENTAL_PROTOCOL: Cyclooxygenase-1 inhibition in mouse peritoneal macrophages (PGE2 ELISA)
- Format: cell-based
- DETAILS: 30 μM
VALUE_KIND: Inhibitory effects of cyclooxygenase (COX): COX-1 (% inhibition)
Expressed in % inhibition, but write only the number.

Measured Inhibitory effects of cyclooxygenase (COX): COX-1 of CCCOc1ccc(-c2ccc(S(C)(=O)=O)cc2)cc1OCCC [Example 3] : 23.4

The compound listed as CC(C)Oc1ccc(-c2ccc(S(C)(=O)=O)cc2)cc1OC(C)C [Example 4] has a reported Inhibitory effects of cyclooxygenase (COX): COX-1 of 78.4

# Inhibitory effects of cyclooxygenase (COX): COX-1 (compound: CCCCOc1cc(-c2ccc(S(C)(=O)=O)cc2)ccc1OC(C)C [Example 9] ) is 70.8

Sure, the documented Inhibitory effects of cyclooxygenase (COX): COX-1 for CCOc1ccc(-c2ccc(S(C)(=O)=O)cc2)cc1OCC [Example 2, 4′-methanesulfonyl-3,4-diethoxy-biphenyl] is 77.1

Sure, the documented Inhibitory effects of cyclooxygenase (COX): COX-1 for CS(=O)(=O)c1ccc(-c2ccc(OC3CC3)c(OC3CC3)c2)cc1 [Example 5] is 60.4

GET /value?item= CCCCOc1ccc(-c2ccc(S(C)(=O)=O)cc2)cc1OCCCC [Example 6] &field=Inhibitory effects of cyclooxygenase (COX): COX-1 returns 22.7

Please fill in: Inhibitory effects of cyclooxygenase (COX): COX-1 reported for CS(=O)(=O)c1ccc(-c2ccc(OCc3ccccc3)c(OCc3ccccc3)c2)cc1 [Example 7] = 41.1

The compound listed as COc1ccc(-c2ccc(S(C)(=O)=O)cc2)cc1OC [Example 1] has a reported Inhibitory effects of cyclooxygenase (COX): COX-1 of 64.7

Inhibitory effects of cyclooxygenase (COX): COX-1 measured on CS(=O)(=O)c1ccc(-c2ccc(OC3CCCC3)c(OC3CCCC3)c2)cc1 [Example 8] = 49.7
